system: SK-MEL-5 melanoma; assay: NCI-60 one-dose screen, 48 h; conditions: 10 µM unless noted
The panel holds about 83,000 compounds, 20% with a hit somewhere; the sample as a whole holds those more often. The source made the active and inactive calls. Rule for the calls: active = growth percent below 10; inactive = the rest.
Classes used: true (1) (active), false (0) (inactive)

compoundSmiles	classAssignment
CCOC(=O)c1sc2nc(-c3cc4ccccc4o3)cc(-c3ccc(Cl)cc3)c2c1N	false (0)
COc1ccc(OC)c(Nc2nc(-c3c(C)nc4sccn34)cs2)c1	false (0)
Cc1cc(C)cc(NC(=O)Cn2nncc2CN2C(=O)CSC2=O)c1	false (0)
C=CCn1c(C)nc2cc(Nc3nc(N4CCCC4)nc4nc[nH]c34)ccc21	false (0)
Nc1nonc1-c1nc2ccccc2n1Cc1ccc(F)cc1	false (0)
COc1ccc(/C=C(/C(=O)N2CCN(c3ccccc3)CC2)c2cc(OC)c(OC)c(OC)c2)cc1N	true (1)
NCCCOc1cc2ccccc2cc1C(=O)NCCCOc1cc2ccccc2cc1C(=O)Nc1ccc(Cl)cc1O	true (1)
O=C(Cc1ccc(Nc2ccnc(C(F)(F)F)c2)cc1)N/N=C/c1ccccc1O	false (0)
NNC(=O)Cc1ccccc1	false (0)
O=C(CCc1nc2sc3c(c2c(=O)[nH]1)CCC3)NCc1cn(-c2ccccc2)nc1-c1ccccc1	false (0)

* * *

system: SNB-75 CNS; experiment: NCI-60 one-dose screen, 48 h (100 = growth as untreated, 0 = no growth, -100 = all killed); settings: 10 µM unless noted
This is part of a sample that, as a whole, favours compounds with a hit. Of some 83,000 tested, about 20% had one in any assay.
Labelling: growth reported below 80% becomes Fulfilled; at or above becomes Not fulfilled.

molecule	assayedSystem	classAssignment
CSCCC1NC(=O)C(C(C)=Nc2ccccc2)=C1O (stereo unspecified)	SNB-75 CNS	Not fulfilled
Oc1[nH]c2ccc(Cl)cc2c1/C=c1/ccc2c(c1)N=C(c1ccc(F)cc1)N=2	SNB-75 CNS	Fulfilled
Cc1ccc(Nc2nc(NCCO)c3ccccc3n2)cc1C	SNB-75 CNS	Fulfilled
Cc1cc(C)c2c(n1)sc1c(Nc3ccc(OCc4ccccc4)cc3)ncnc12	SNB-75 CNS	Not fulfilled
COc1ccc(C(=O)c2c(N)nc3n2CCCC3)cc1OC	SNB-75 CNS	Not fulfilled
O=C(N=Nc1c(Cl)c(O)c2ccccc2c1O)C(=O)Nc1cccc(C(F)(F)F)c1	SNB-75 CNS	Fulfilled
O=C1OC(c2ccc(-c3ccccc3)cc2)=C/C1=C/c1c(Cl)cccc1Cl	SNB-75 CNS	Not fulfilled
Cc1cc(-c2nnc(/C=C/c3ccc4c(c3)OCO4)o2)n[nH]1	SNB-75 CNS	Fulfilled
COc1ccc(Nc2ncnc3c2sc2nc(C)cc(C)c23)cc1	SNB-75 CNS	Fulfilled
Cc1cc(C)cc(Nc2cc(C)nc3nc(C(F)(F)F)nn23)c1	SNB-75 CNS	Fulfilled
COc1ccc(-c2nnc(SCC(=O)Nc3ccc(C(=O)/C=C/c4ccc(Cl)cc4)cc3)n2-c2ccccc2)cc1	SNB-75 CNS	Not fulfilled
O=C(Nc1ccccc1)C(CCCCN1C(=O)c2ccccc2C1=O)N1C(=O)c2ccccc2C1=O (stereo unspecified)	SNB-75 CNS	Not fulfilled
Nc1cccc(S(=O)(=O)c2cccc(N)c2)c1	SNB-75 CNS	Not fulfilled
CC(C)c1[nH]ncc1-c1nc2ccc3[nH]ncc3c2c2c1CCCC2	SNB-75 CNS	Fulfilled
COc1cc(-c2nc(-c3nc4cc(C(=O)c5ccccc5)ccc4[nH]3)cc3c2[nH]c2ccccc23)cc(OC)c1OC	SNB-75 CNS	Fulfilled
CNCc1ccccc1CN(CC(=O)Nc1ccc2c(c1)CC1(C2)C(=O)Nc2ncccc21)C(=O)C(C)(C)C (stereo unspecified)	SNB-75 CNS	Not fulfilled
COc1ccc(/C=C2\Cc3c(Br)cccc3C2=O)c(OC)c1	SNB-75 CNS	Fulfilled
COc1ccc(/C=c2\c(=O)n(-c3ccccc3)c3nn4c(n23)=NNC42CCCCC2)cc1	SNB-75 CNS	Not fulfilled
CCN(CC)C(Cl)=Nc1ccc(Cl)cc1	SNB-75 CNS	Not fulfilled
CC(C)OC(=O)c1ccc([N+](=O)[O-])cc1	SNB-75 CNS	Not fulfilled
O=C(O)/C=C(\c1nc2ccc([N+](=O)[O-])cc2[nH]1)c1cc(Cl)ccc1O	SNB-75 CNS	Fulfilled
